Attribution: patent US20250171459A1

Reported pIC50 values for the following compounds.
SYSTEM_TESTED: APOL1 (Homo sapiens, UniProt O14791)
Sequence (O14791 1-398 S342G/I384M): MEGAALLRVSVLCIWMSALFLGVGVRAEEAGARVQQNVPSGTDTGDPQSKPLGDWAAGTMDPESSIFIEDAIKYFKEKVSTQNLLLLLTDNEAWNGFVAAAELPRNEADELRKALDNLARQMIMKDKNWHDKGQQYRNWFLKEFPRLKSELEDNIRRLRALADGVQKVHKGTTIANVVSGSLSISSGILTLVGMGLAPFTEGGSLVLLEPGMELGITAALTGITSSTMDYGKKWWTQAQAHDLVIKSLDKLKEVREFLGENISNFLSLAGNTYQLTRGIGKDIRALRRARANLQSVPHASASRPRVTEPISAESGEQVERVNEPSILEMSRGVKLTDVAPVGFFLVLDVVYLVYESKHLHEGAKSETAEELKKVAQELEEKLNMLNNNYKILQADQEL
PROTOCOL_NOTES: MultiTox-Fluor Multiplex Cytotoxicity Assay in tet-inducible APOL1 T-REx-HEK293 cells (cell rescue, ratio of dead to live cells)
Type: cell-based
CONDITION_SUMMARY: tet-inducible transgenic APOL1 T-REx-HEK293 cell lines, 50 ng/mL tet, 24 hours; read-out: IP50 (i.e., IC50 for cell proliferation)
pIC50: −log10 of the molar value.

Worked examples, 7 compounds total:
{"COMPOUND": "CCc1cc2c(s1)CCO[C@@]21CCN(Cc2ccc(N[C@H]3COC[C@@H]3O)nc2)[C@@H](C)C1", "SYSTEM_TESTED": "APOL1 (Homo sapiens, UniProt O14791)", "OBS_VALUE": "> 7.00"}
{"COMPOUND": "CCc1cc2c(s1)CCOC21CCN(Cc2cn(C(C)C(=O)NCCO)nn2)CC1 (centres unmarked)", "SYSTEM_TESTED": "APOL1 (Homo sapiens, UniProt O14791)", "OBS_VALUE": "6.00 to 6.30"}
{"COMPOUND": "CCc1cc2c(s1)CCO[C@@]21CCN(CC2CN(C(=O)c3nnc(C)o3)C2)[C@@H](C)C1", "SYSTEM_TESTED": "APOL1 (Homo sapiens, UniProt O14791)", "OBS_VALUE": "> 7.00"}
{"COMPOUND": "C[C@H]1C[C@@]2(CCN1Cc1cnn(CC(=O)NC3CC3)c1)OC[C@@H](O)c1cc(C(F)(F)F)sc12", "SYSTEM_TESTED": "APOL1 (Homo sapiens, UniProt O14791)", "OBS_VALUE": "> 7.00"}
{"COMPOUND": "C[C@H]1C[C@@]2(CCN1Cc1cnn(CC3(CO)COC3)c1)OCCc1c2sc(C(F)(F)F)c1CO", "SYSTEM_TESTED": "APOL1 (Homo sapiens, UniProt O14791)", "OBS_VALUE": "> 7.00"}
{"COMPOUND": "CCc1cc2c(s1)CCOC21CCN(Cc2cc3nc(OC)ccc3[nH]2)CC1", "SYSTEM_TESTED": "APOL1 (Homo sapiens, UniProt O14791)", "OBS_VALUE": "> 7.00"}
{"COMPOUND": "CCc1cc2c(s1)CCOC21CCN(Cc2cn(C3CC(F)(F)C3)nn2)CC1", "SYSTEM_TESTED": "APOL1 (Homo sapiens, UniProt O14791)", "OBS_VALUE": "6.00 to 6.30"}

## Task Answer with the recorded pIC50 of `CCNC(=O)CCn1cc(CN2CC[C@]3(C[C@@H]2C)OCCc2c3sc(C(F)(F)F)c2CO)cn1` only.
## Result > 7.00
